target: His-TEV-DYRK1A Kinase domain (aa127-485) (Homo sapiens, UniProt Q13627); construct: His-TEV-DYRK1A Kinase domain (aa127-485); His (N); TEV cleavage site (N); assay: Kinase ADP assay (ADP Hunter Plus); assay type: biochemical
We begin with a simple list: items and their reported IC50.
// return numeric value only (unit: µM, not printed)

Guide cases for IC50, answers given:
* Cc1nc(NCc2ncccc2C(F)(F)F)c2c(-c3ccnc(N)c3)c[nH]c2n1 | 0.01
* Cc1nc(CCc2ccccc2)c2c(-c3ccnc(N)c3)c[nH]c2n1 | 0.184
* C#Cc1nc(-c2ccc3c(c2)OCO3)c2c(-c3ccnc(N)c3)c[nH]c2n1 | 0.029

[Q] Param readout= IC50; system= His-TEV-DYRK1A Kinase domain (aa127-485) (Homo sapiens, UniProt Q13627); entry= Cc1nc(-c2ccc3c(c2)CCCC3)c2c(-c3ccnc(N)c3)c[nH]c2n1 ; returns value.
[A] 0.008
